- System: MDR1
- assay_notes: MDCK-MDR1 permeability assay
- Assay type: in vitro ADME
- applied_conditions: dog, apical to basolateral, 3 μM test compound, 2 hours at 37 degrees C
recorded_metric: Papp A→B at 2 h, 3 μM (×10⁻⁶ cm/s)
Provide only the numeric value, understood in ×10⁻⁶ cm/s.

- compound: "CS(=O)(=O)N[C@H]1CCN(Cc2ccccn2)CC1COC1CCC(c2ccccc2)CC1 (stereo partly drawn)"
  recorded_metric: "Papp A→B at 2 h, 3 μM"
  recorded_result: 1.4

Consider the record given below.
Consider the compound CS(=O)(=O)N[C@H]1CCN(c2ccc(F)cn2)CC1COC1CCC(c2ccccc2)CC1 (stereo partly drawn) . State its measured Papp A→B at 2 h, 3 μM. 0.28

* * *

- Test system: MDR1
- assay_notes: MDCK-MDR1 permeability assay
- Format: in vitro ADME
- applied_conditions: dog, Papp (B→A) divided by Papp (A→B), 3 μM test compound, read-out: Efflux ratio (ER)
Decision: efflux ratio at 2 h, 3 μM >= 20 yields 1, all other cases yield 0.

- compound: "CS(=O)(=O)N[C@H]1CCN(c2ccccn2)CC1COC1CCC(c2cccc(C(F)(F)F)c2)CC1 (stereo partly shown) [Compound 33]"
  class_assignment: 0
- compound: "CS(=O)(=O)N[C@H]1CCN(c2ncccn2)CC1COC1CCC(c2ccccc2)CC1 (stereo partly shown) [Compound 19]"
  class_assignment: 0
- compound: "CS(=O)(=O)N[C@H]1CCN(c2cccc3ncnn23)CC1COC1CCC(c2ccccc2)CC1 (stereo partly shown) [Compound 43]"
  class_assignment: 0

Determine whether measured efflux ratio at 2 h, 3 μM meets or exceeds 20 for C[C@@H](c1ccccc1)N1CC[C@H](NS(C)(=O)=O)C(COC2CCC(c3ccccc3)CC2)C1 (stereo partly shown) [Compound 37] 0

Check this compound for efflux ratio at 2 h, 3 μM at or above 20: CS(=O)(=O)N[C@H]1CCN(c2ncccc2F)CC1COC1CCC(c2ccccc2)CC1 (stereo partly shown) [Compound 26] 1

Exam item: decide whether the reported efflux ratio at 2 h, 3 μM for CS(=O)(=O)N[C@H]1CCN(c2cccc3ccnn23)CC1COC1CCC(c2ccccc2)CC1 (stereo partly shown) [Compound 42] is at least 20. 0

API: above_or_equal(metric=efflux ratio at 2 h, 3 μM, cutoff=20) for item CS(=O)(=O)N[C@H]1CCN(c2ccncn2)CC1COC1CCC(c2ccccc2)CC1 (stereo partly shown) [Compound 20] 0

Kindly determine if efflux ratio at 2 h, 3 μM recorded for CS(=O)(=O)N[C@H]1CCN(Cc2ccncc2)CC1COC1CCC(c2ccccc2)CC1 (stereo partly shown) [Compound 41] is above or exactly 20. 0

Is efflux ratio at 2 h, 3 μM at least 20? Consider CS(=O)(=O)N[C@H]1CCN(c2ccccn2)CC1COC1CCC(c2ccc(O)cc2)CC1 (stereo partly shown) [Compound 32] 1

Exam item: decide whether the reported efflux ratio at 2 h, 3 μM for CS(=O)(=O)N[C@H]1CCN(c2ccccn2)CC1COC1CCC(c2ccnnc2)CC1 (stereo partly shown) [Compound 13] is at least 20. 0

# bool: efflux ratio at 2 h, 3 μM of CS(=O)(=O)N[C@H]1CCN(c2cnccn2)CC1COC1CCC(c2ccccc2)CC1 (stereo partly shown) [Compound 21] >= 20 1

API: above_or_equal(metric=efflux ratio at 2 h, 3 μM, cutoff=20) for item C[C@H](c1ccccc1)N1CC[C@H](NS(C)(=O)=O)C(COC2CCC(c3ccccc3)CC2)C1 (stereo partly shown) [Compound 38] 0

Does the compound CS(=O)(=O)N[C@H]1CCN(c2nccc3ocnc23)CC1COC1CCC(c2ccccc2)CC1 (stereo partly shown) [Compound 45] have recorded efflux ratio at 2 h, 3 μM that is 20 or more? 0
